- Tested on: giant foxtail
- Assay remarks: Test B pre-/postemergence herbicide test
- Format: in vivo, Setaria faberi
- Condition context: 125 g ai/ha; 0 is no effect, 100 is complete control; preemergence
Property measured: Plant response rating (0 to 100 scale), Foxtail, Giant

test_smiles=Cc1nn(C(C)C)nc1C(=O)Nc1cccc(C(=O)N2CC=CC2)c1 recorded_measurement=20
test_smiles=CCOC(=O)c1ccc(F)c(NC(=O)c2nn(C(C)(C)CC)nc2CC)c1 recorded_measurement=0
test_smiles=CCc1nn(C(C)C)nc1C(=S)Nc1cccc(C(=S)N(C)C)c1 recorded_measurement=30

###

- Tested on: ducksalad
- Assay remarks: Test C flooded paddy test
- Format: in vivo, Heteranthera limosa
- Condition context: 250 g ai/ha, scale of 0 to 100, 0 is no effect, 100 is complete control
Property measured: Ducksalad plant response rating

compound="CCN(C)C(=O)c1cncc(NC(=O)c2cc(C(C)(C)C)nn2CC)c1 [Compound 263]" property_measured="Ducksalad plant response rating" recorded_measurement=75
compound="CCn1nc(C(C)(C)C)cc1C(=O)Nc1cncc(C(=O)N(C)C)c1 [Compound 258]" property_measured="Ducksalad plant response rating" recorded_measurement=70
compound="CCNC(=O)c1cccc(NC(=O)c2cn(C(C)(C)C)nc2CC)c1 [Compound 181]" property_measured="Ducksalad plant response rating" recorded_measurement=0
compound="CCn1nc(C(C)(C)C)cc1C(=O)Nc1cccc(OC(F)F)c1 [Compound 332]" property_measured="Ducksalad plant response rating" recorded_measurement=95
compound="Cc1nn(C(C)(C)C)nc1C(=O)Nc1cccc(C(=O)N2CC=CC2)c1 [Compound 393]" property_measured="Ducksalad plant response rating" recorded_measurement=80
compound="CCn1nc(C(C)(C)C)cc1C(=O)Nc1cc(C(=O)N2CC=CC2)ccn1 [Compound 142]" property_measured="Ducksalad plant response rating" recorded_measurement=95
compound="CCNC(=O)c1cccc(NC(=O)c2nn(C(C)(C)C)cc2Cl)c1 [Compound 219]" property_measured="Ducksalad plant response rating" recorded_measurement=0
compound="CCc1nc(C(C)(C)C)sc1C(=O)Nc1cccc(C(=O)N(C)C)c1 [Compound 228]" property_measured="Ducksalad plant response rating" recorded_measurement=90
compound="CCOC(=O)c1cccc(NC(=O)c2cc(C(C)(C)C)nn2CC)c1C [Compound 88]" property_measured="Ducksalad plant response rating" recorded_measurement=40
compound="CCNC(=O)c1cc(NC(=O)c2cc(C(C)(C)C)nn2CC)ccc1F [Compound 58]" property_measured="Ducksalad plant response rating" recorded_measurement=20
compound="CCn1nc(C(C)(C)C)cc1C(=O)Nc1cc(C(=S)N(C)C)ccn1 [Compound 334]" property_measured="Ducksalad plant response rating" recorded_measurement=85
compound="CCN(C)C(=O)c1ccc(F)c(NC(=O)C2CC(C(C)(C)C)=NN2CC)c1 (racemic) [Compound 307]" property_measured="Ducksalad plant response rating" recorded_measurement=90
compound="CCNC(=O)c1cccc(NC(=O)c2cc(C3(C)CC3)nn2CC)c1 [Compound 306]" property_measured="Ducksalad plant response rating" recorded_measurement=80
compound="CCn1nc(C(C)(C)C)cc1C(=O)Nc1cccc(C(=O)N2CCOCC2)n1 [Compound 247]" property_measured="Ducksalad plant response rating" recorded_measurement=0
compound="CCc1nn(C(C)C)nc1C(=S)Nc1cccc(C(=S)N(C)C)c1 [Compound 410]" property_measured="Ducksalad plant response rating" recorded_measurement=60
compound="CCn1nc(C(C)(C)C)cc1C(=O)Nc1cccc(SC)c1 [Compound 131]" property_measured="Ducksalad plant response rating" recorded_measurement=45
compound="C=Cn1nc(C(C)(C)C)cc1C(=O)Nc1cccc(C(C)=O)c1 [Compound 127]" property_measured="Ducksalad plant response rating" recorded_measurement=20

###

- Tested on: common (oilseed) sunflower
- Assay remarks: Test C pre-/postemergence herbicide test
- Assay type: in vivo, Helianthus annuus
- Condition context: 500 g ai/ha; scale 0 to 100 (0 no effect, 100 complete control); visual, 12 to 14 days; preemergence
The entries below are paired with their reported Plant response rating, Sunflower.
Property measured: Plant response rating, Sunflower

test_smiles=CCn1nc(C2(C)CC2)cc1C(=O)Nc1cc(C(=O)N(C)C)ccc1F recorded_measurement=100
test_smiles=CCc1nn(C(C)(C)C)cc1C(=O)Nc1cc(C(=O)N(CC)CC)ccc1F recorded_measurement=30
test_smiles=CCc1nn(C(C)(C)C)nc1C(=S)Nc1cccc(C(=S)N(C)C)c1 recorded_measurement=15
test_smiles=CCc1nn(C(C)(C)C)nc1C(=O)Nc1cccc(C(=S)N(C)C)c1 recorded_measurement=55
test_smiles=CCn1nc(C(C)(C)C)cc1C(=O)Nc1cccc(OC(F)F)c1 recorded_measurement=0
test_smiles=CCNC(=O)c1cccc(NC(=O)c2sc(C(C)(C)C)nc2CC)n1 recorded_measurement=0

###

- System: ducksalad
- Assay remarks: Test C flooded paddy test
- Type: in vivo, Heteranthera limosa
- Condition context: 125 g ai/ha, scale 0 to 100 (0 no effect, 100 complete control)
Property measured: Ducksalad plant response rating

molecule="CCN(C)C(=O)c1ccc(F)c(NC(=O)C2CC(C(C)(C)C)=NN2CC)c1 (racemic)" recorded_measurement=70
molecule=CCOC(=O)c1cncc(NC(=O)c2cc(C(C)(C)C)nn2CC)c1 recorded_measurement=10
molecule=CCn1nc(C(C)(C)C)cc1C(=O)Nc1cccc(C(N)=O)n1 recorded_measurement=85
molecule="CCC1=NN(C(C)(C)C)CC1C(=O)Nc1cc(C(=O)N(C)C)ccc1F (racemic)" recorded_measurement=80
molecule=Cc1nn(C(C)C)nc1C(=O)Nc1cccc(C(=O)N(C)C)c1 recorded_measurement=10
molecule=CCc1nn(C(C)C)nc1C(=S)Nc1cccc(C(=S)N(C)C)c1 recorded_measurement=40
molecule=CCn1nc(C(C)(C)C)cc1C(=O)Nc1cccc(OC(F)F)c1 recorded_measurement=90
molecule=CCc1nn(C(C)(C)C)nc1C(=S)Nc1cccc(C(=S)N(C)C)c1 recorded_measurement=0
molecule=CCc1nc(C(C)(C)C)sc1C(=O)Nc1cccc(C(=O)N(C)C)c1 recorded_measurement=85
molecule=CCn1nc(C(C)(C)C)cc1C(=S)Nc1cc(C(=S)N(C)C)ccc1F recorded_measurement=0

###

- Tested on: lambsquarters
- Assay remarks: Test B pre-/postemergence herbicide test
- Assay type: in vivo, Chenopodium album
- Condition context: preemergence, 125 g ai/ha; 0 to 100 scale, 0 is no effect, 100 is complete control
Property measured: Plant response rating, Lambsquarters

compound="CCOC(=O)c1cc(N(C(C)=O)C(=O)c2cc(C(C)(C)C)nn2CC)ccc1C [Compound 141]" recorded_measurement=0
compound="CCNC(=O)c1cc(NC(=O)c2cc(C(C)(C)C)nn2CC)ccc1F [Compound 58]" recorded_measurement=100
compound="CCCCNS(=O)(=O)c1cccc(NC(=O)c2cc(C(C)(C)C)nn2C)c1 [Compound 125]" recorded_measurement=0
compound="CCn1nc(C(C)(C)C)cc1C(=O)Nc1cc(C(=O)N2CC=CC2)ccn1 [Compound 142]" recorded_measurement=100
compound="C#CCNC(=O)c1cccc(NC(=O)c2cc(C(C)(C)C)nn2CC)c1 [Compound 47]" recorded_measurement=100
compound="CCN(CC)C(=O)c1cc(NC(=O)c2cc(C(C)(C)C)nn2CC)ccc1F [Compound 59]" recorded_measurement=90
compound="CCCCn1nc(C(C)(C)C)cc1C(=O)Nc1cccc(C(C)=NO)c1 [Compound 119]" recorded_measurement=0
compound="C=Cn1nc(C(C)(C)C)cc1C(=O)Nc1cccc(C(C)=O)c1 [Compound 127]" recorded_measurement=0

###

- Tested on: large crabgrass
- Assay remarks: Test B pre-/postemergence herbicide test
- Type: in vivo, Digitaria sanguinalis
- Condition context: 125 g ai/ha; visual rating, scale 0 (no effect) to 100 (complete control); postemergence
Property measured: Crabgrass, Large plant response rating

test_smiles=CCc1nn(C(C)(C)C)cc1C(=O)Nc1cc(C(=O)N(C)C)ccn1 test_target="large crabgrass" property_measured="Crabgrass, Large plant response rating" recorded_measurement=0
test_smiles=CCn1nc(C(C)(C)C)cc1C(=O)Nc1cc(OC)ccc1F test_target="large crabgrass" property_measured="Crabgrass, Large plant response rating" recorded_measurement=0
test_smiles=CCn1nc(C(C)(C)C)cc1C(=O)Nc1cccc(OC(F)F)c1 test_target="large crabgrass" property_measured="Crabgrass, Large plant response rating" recorded_measurement=50
test_smiles=CCNC(=O)c1ccc(F)c(NC(=O)c2nn(C(C)(C)C)nc2CC)c1 test_target="large crabgrass" property_measured="Crabgrass, Large plant response rating" recorded_measurement=0
test_smiles=CCn1nc(C2(C)CC2)cc1C(=O)Nc1cccc(C(=O)N(C)C)c1 test_target="large crabgrass" property_measured="Crabgrass, Large plant response rating" recorded_measurement=10
test_smiles=CCc1nn(C(C)(C)C)nc1C(=S)Nc1cccc(C(=S)N(C)C)c1 test_target="large crabgrass" property_measured="Crabgrass, Large plant response rating" recorded_measurement=20
test_smiles=C#CCOC(=O)c1cccc(NC(=O)c2cc(C(C)(C)C)nn2C)n1 test_target="large crabgrass" property_measured="Crabgrass, Large plant response rating" recorded_measurement=0
test_smiles=CCc1nn(C(C)(C)C)nc1C(=O)Nc1cccc(C(=O)N2CC=CC2)c1 test_target="large crabgrass" property_measured="Crabgrass, Large plant response rating" recorded_measurement=10
test_smiles=CCn1nc(C(C)(C)C)cc1C(=O)Nc1cc(OC)ccc1OC test_target="large crabgrass" property_measured="Crabgrass, Large plant response rating" recorded_measurement=20
test_smiles=CCNC(=O)c1ccc(F)c(NC(=O)c2nn(C(C)(C)CC)nc2CC)c1 test_target="large crabgrass" property_measured="Crabgrass, Large plant response rating" recorded_measurement=10

FYI, the data here is from patent US20060069132A1.
